Origin of values: patent US20230149401A1

Molecular target: PC5A (PCSK5) (Homo sapiens)
Construct: fused on or other part: C-terminal Tev site, Flag tag and 6His tag
Sequence (Q92824 115-601): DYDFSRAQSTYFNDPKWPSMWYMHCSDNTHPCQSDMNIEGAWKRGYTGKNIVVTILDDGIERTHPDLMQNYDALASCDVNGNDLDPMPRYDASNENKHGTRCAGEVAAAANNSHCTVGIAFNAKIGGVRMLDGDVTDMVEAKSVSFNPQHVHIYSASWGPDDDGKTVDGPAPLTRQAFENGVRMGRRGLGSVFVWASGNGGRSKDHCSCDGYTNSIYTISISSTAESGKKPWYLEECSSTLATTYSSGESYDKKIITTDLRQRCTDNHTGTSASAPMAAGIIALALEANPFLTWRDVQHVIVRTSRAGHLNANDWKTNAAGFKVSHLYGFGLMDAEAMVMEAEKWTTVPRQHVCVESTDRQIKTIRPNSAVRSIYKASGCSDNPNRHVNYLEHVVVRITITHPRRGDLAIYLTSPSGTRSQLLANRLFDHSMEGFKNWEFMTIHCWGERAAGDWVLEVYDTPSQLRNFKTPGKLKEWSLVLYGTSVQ
Experiment: Biochemical PC-inhibition assay, substrate FAM-[…]-TAMRA
pIC50: −log10 of the molar value. Residues, ends and D or L forms follow the SMILES beside them.
measuredProperty: pIC50

**Query** Look up pIC50: CC(=O)NCC1CCN(Cc2cc(Oc3ccc(N4CCN(CCC(=O)O)CC4)nc3)nc(-c3cc(Cl)cc(Cl)c3)c2)CC1 [Compound 219]
**Result** ~8.15

**Query** Look up pIC50: CC(=O)NCC1CCN(Cc2cc(Oc3cnc(N4CCN(CCC(C)C(=O)O)CC4)nc3)nc(-c3cc(Cl)cc(Cl)c3)c2)CC1 (stereo not shown) [Compound 192]
**Result** ~8.15

**Query** Look up pIC50: CN1CCN(c2ncc(Oc3cc(CN4CCC(CC(=O)O)CC4)cc(-c4cc(Cl)cc(Cl)c4)n3)cn2)CC1 [Compound 93]
**Result** ~8.15

**Query** Look up pIC50: CCCCCCCCCC(=O)N[C@@H](CCCNC(=N)N)C(=O)N[C@H](C(=O)N[C@@H](CCCCN)C(=O)N[C@@H](CCCNC(=N)N)C(=O)CCl)C(C)C [RVKR-cmk, Decanoyl-Arg-Val-Lys-Arg-CMK, reference compound] (HELM PEPTIDE1{[CCCCCCCCCC(=O)[*:2]].R.V.K.R.[ClC[*:1]]}$$$$V2.0)
**Result** ~8.05

###

Target: PACE4 (PCSK6) (Homo sapiens, UniProt P29122)
Construct: PACE4 (PCSK6; 150-693-Tev-Flag-6His); Tev site (C); Flag (C); 6His (C)
Sequence (P29122 150-693): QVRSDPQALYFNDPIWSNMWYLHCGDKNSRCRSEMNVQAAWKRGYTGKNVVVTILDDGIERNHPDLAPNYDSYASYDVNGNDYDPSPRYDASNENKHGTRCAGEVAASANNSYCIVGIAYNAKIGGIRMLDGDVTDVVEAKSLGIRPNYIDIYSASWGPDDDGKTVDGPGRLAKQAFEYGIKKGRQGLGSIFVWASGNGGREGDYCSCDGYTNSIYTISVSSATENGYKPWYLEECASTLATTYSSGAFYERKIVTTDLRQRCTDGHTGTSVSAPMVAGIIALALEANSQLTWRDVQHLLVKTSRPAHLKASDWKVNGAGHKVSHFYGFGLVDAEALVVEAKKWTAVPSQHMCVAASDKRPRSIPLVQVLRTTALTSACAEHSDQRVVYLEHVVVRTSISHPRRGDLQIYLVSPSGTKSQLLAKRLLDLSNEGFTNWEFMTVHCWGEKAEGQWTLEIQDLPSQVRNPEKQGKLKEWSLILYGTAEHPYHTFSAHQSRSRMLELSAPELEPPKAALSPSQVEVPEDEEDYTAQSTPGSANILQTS
Test: Biochemical PC-inhibition assay, substrate FAM-[…]-TAMRA
Procedure: Biochemical assay: The proprotein convertases furin (108-574-Tev-Flag-6His), PC5A (PCSK5; […]-Tev-Flag-6His), PACE4 (PCSK6; 150-693-Tev-Flag-6His), and PC7 (PCSK7; 142-634-Tev-Flag-6His) enzymes were purified from BacMam transduced CHO cells. […] Enzyme inhibition was then quantified using an Envision instrument (PerkinElmer). Data were normalized to maximal inhibition determined by 1 μM Decanoyl-Arg-Val-Lys-Arg-Chloromethylketone (Calbiochem #344930). […]
Residues, ends and D or L forms follow the SMILES beside them.
measuredProperty: IC50

**Query** Look up IC50: CC(=O)NCC1CCN(Cc2cc(Oc3cnc(N4CCN(CCC(C)C(=O)O)CC4)nc3)nc(-c3cc(Cl)cc(Cl)c3)c2)CC1 (stereo not shown)
**Result** ~7 nM

**Query** Look up IC50: `CC(=O)NCC1CCN(Cc2cc(Oc3ccc(N4CCN(CCC(=O)O)CC4)nc3)nc(-c3cc(Cl)cc(Cl)c3)c2)CC1`
**Result** ~7 nM

**Query** Look up IC50: CCCCCCCCCC(=O)N[C@@H](CCCNC(=N)N)C(=O)N[C@H](C(=O)N[C@@H](CCCCN)C(=O)N[C@@H](CCCNC(=N)N)C(=O)CCl)C(C)C [RVKR-cmk, Decanoyl-Arg-Val-Lys-Arg-CMK, reference compound] (HELM PEPTIDE1{[CCCCCCCCCC(=O)[*:2]].R.V.K.R.[ClC[*:1]]}$$$$V2.0)
**Result** ~9 nM

**Query** Look up IC50: `CN1CCN(c2ncc(Oc3cc(CN4CCC(CC(=O)O)CC4)cc(-c4cc(Cl)cc(Cl)c4)n3)cn2)CC1`
**Result** ~7 nM

###

Molecular target: furin (Homo sapiens, UniProt P09958)
Sequence (P09958 108-794): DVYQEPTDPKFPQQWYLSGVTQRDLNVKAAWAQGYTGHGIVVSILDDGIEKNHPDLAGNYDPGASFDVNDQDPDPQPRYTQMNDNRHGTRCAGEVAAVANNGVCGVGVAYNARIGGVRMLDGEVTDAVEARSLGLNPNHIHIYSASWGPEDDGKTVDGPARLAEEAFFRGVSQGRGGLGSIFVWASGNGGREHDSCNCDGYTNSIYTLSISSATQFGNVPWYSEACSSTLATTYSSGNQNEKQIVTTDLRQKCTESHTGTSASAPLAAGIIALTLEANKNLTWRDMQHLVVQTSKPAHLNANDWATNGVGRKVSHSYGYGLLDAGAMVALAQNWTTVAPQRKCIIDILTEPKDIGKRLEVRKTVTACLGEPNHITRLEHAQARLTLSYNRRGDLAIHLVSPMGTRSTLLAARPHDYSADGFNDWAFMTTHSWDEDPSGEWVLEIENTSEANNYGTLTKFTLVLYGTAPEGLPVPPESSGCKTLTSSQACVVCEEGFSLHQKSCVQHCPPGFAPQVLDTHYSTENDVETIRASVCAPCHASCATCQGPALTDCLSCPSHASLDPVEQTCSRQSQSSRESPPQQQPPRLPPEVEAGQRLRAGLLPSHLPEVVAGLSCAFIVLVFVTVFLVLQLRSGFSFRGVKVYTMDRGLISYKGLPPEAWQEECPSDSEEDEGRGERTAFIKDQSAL
Assay: biochemical
measuredProperty: pIC50
Keep in mind that pIC50 stands for -log10 of concentration in molar terms.

**Query** Look up pIC50: CC(=O)NCC1CCN(Cc2cc(Oc3cnc(N4CCN(CCC(C)C(=O)O)CC4)nc3)nc(-c3cc(Cl)cc(Cl)c3)c2)CC1 (stereo not shown)
**Result** 8.40

###

Assignment: determine reported pIC50 for the given molecules.
Target: PC7 (PCSK7) (Homo sapiens, UniProt Q16549)
Construct: PC7 (PCSK7; 142-634-Tev-Flag-6His); Tev site (C); Flag (C); 6His (C)
Sequence (Q16549 142-634): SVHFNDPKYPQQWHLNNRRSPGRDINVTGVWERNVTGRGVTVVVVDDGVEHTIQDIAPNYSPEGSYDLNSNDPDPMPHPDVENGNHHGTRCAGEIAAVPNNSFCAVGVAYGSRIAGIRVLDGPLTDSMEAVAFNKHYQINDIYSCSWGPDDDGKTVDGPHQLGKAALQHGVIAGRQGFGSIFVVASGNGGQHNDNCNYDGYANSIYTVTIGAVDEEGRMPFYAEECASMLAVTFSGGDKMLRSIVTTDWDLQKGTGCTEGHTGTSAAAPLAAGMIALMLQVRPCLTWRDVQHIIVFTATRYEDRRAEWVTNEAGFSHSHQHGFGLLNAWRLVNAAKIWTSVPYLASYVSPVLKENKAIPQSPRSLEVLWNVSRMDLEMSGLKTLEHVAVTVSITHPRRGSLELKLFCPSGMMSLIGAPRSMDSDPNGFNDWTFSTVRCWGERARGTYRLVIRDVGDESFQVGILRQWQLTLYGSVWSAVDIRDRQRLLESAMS
Assay: Biochemical PC-inhibition assay, substrate FAM-[…]-TAMRA
pIC50: −log10 of the molar value. Residues, ends and D or L forms follow the SMILES beside them.

**Query** Look up pIC50: `CC(=O)NCC1CCN(Cc2cc(Oc3ccc(N4CCN(CCC(=O)O)CC4)nc3)nc(-c3cc(Cl)cc(Cl)c3)c2)CC1`
**Result** ~8.15

**Query** Look up pIC50: `CN1CCN(c2ncc(Oc3cc(CN4CCC(CC(=O)O)CC4)cc(-c4cc(Cl)cc(Cl)c4)n3)cn2)CC1`
**Result** ~8.15

**Query** Look up pIC50: CCCCCCCCCC(=O)N[C@@H](CCCNC(=N)N)C(=O)N[C@H](C(=O)N[C@@H](CCCCN)C(=O)N[C@@H](CCCNC(=N)N)C(=O)CCl)C(C)C [RVKR-cmk, Decanoyl-Arg-Val-Lys-Arg-CMK, reference compound] (HELM PEPTIDE1{[CCCCCCCCCC(=O)[*:2]].R.V.K.R.[ClC[*:1]]}$$$$V2.0)
**Result** ~8.05

**Query** Look up pIC50: CC(=O)NCC1CCN(Cc2cc(Oc3cnc(N4CCN(CCC(C)C(=O)O)CC4)nc3)nc(-c3cc(Cl)cc(Cl)c3)c2)CC1 (stereo not shown)
**Result** ~8.15
